Each recorded value in this set is attributed to paper PMC10095708.

experimental target: hSTING-H232 (Homo sapiens, UniProt Q86WV6)
Construct: purchased Cisbio
Sequence (Q86WV6 135-379 limits assumed): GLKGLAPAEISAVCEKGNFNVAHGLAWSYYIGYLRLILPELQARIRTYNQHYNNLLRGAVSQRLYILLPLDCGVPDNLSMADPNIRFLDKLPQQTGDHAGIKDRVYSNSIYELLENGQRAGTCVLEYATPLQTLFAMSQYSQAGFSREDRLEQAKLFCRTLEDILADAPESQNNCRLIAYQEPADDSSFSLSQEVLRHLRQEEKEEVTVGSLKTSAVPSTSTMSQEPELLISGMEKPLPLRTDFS
protocol summary: HTRF STING competition binding (cGAMP displacement) assay, hSTING-H232
condition: concentrations up to 100 μM
From the text: Mouse STING binding kits, human STING WT binding kits, human AQ STING binding kits, human H232 STING binding kits were purchased from Cisbio. […] QUANTI-Blue solution, QUANTI-Luc, 2′,3′-cGAMP were purchased from Invivogen. […] CellTiter-Glo luminescent cell viability assay kit was obtained from Promega. […]
observed property: binding to hSTING-H232 in displacement assay, in words

INSERT INTO assay_data (compound, measured_result) VALUES
  ('COc1cc2c(=O)c3ccccc3[nH]c2c(C)c1C [Compound 9, 2-methoxy-3,4-dimethylacridin-9(10H)-one]', 'cannot bind to STING'),
  ('CCOC(=O)Cn1c2ccccc2c(=O)c2cc(OC)c(C)c(C)c21', 'cannot bind to STING'),
  ('COc1cc(C(=O)O)c2[nH]c3c(C)c(C)c(OC)cc3c(=O)c2c1', 'inactive'),
  ('COc1cc2c(=O)c3cccc(C(=O)O)c3[nH]c2c(C)c1C', 'inactive');

---

experimental target: hSTING-WT (Homo sapiens, UniProt Q86WV6, H232R)
Sequence (Q86WV6 whole entry H232R): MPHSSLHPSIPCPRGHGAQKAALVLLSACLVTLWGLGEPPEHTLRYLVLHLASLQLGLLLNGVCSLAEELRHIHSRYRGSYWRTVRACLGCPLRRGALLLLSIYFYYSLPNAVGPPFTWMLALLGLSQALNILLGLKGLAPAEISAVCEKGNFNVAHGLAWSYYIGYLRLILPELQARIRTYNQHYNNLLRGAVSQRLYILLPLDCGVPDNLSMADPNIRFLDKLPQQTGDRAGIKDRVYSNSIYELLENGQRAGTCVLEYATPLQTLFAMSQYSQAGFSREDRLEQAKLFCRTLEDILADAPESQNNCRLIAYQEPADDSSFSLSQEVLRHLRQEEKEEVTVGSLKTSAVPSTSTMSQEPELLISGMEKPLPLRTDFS
protocol summary: HTRF STING competition binding (cGAMP displacement) assay, hSTING-WT
condition: HTRF displacement assay, means from at least three repeated experiments
pIC50: −log10 of the molar value.
Reported pIC50 by item:

Observe how each entry below is paired with its result.
INSERT INTO assay_data (compound, observed_property, measured_result) VALUES
  ('COc1cc2c(=O)c3cccc4c3n(c2c(C)c1C)C(=O)C4 [Compound 3]', 'pIC50', 4.74),
  ('COc1cc(C(=O)O)c2[nH]c3c(C)c(C)c(OC)cc3c(=O)c2c1 [Compound 34]', 'pIC50', '< 4.00'),
  ('CCOC(=O)Cn1c2ccccc2c(=O)c2cc(OC)c(C)c(C)c21 [Compound 10]', 'pIC50', '< 4.00'),
  ('COc1cc2c(=O)c3c(Cl)ccc4c3n(c2c(C)c1C)C(=O)C4 [Compound 25]', 'pIC50', 4.11),
  ('COc1cc2c(=O)c3c(Cl)ccc(CC(=O)O)c3[nH]c2c(C)c1C [Compound 36]', 'pIC50', '< 4.00');

Lab note: next compound to report on.
Bench note: what pIC50 did COc1cc2c(=O)c3cccc(CC(=O)O)c3[nH]c2c(C)c1C [Compound 4] show?
4.68

---

Form field: pIC50 (one value per entry).
experimental target: hSTING-AQ (Homo sapiens, UniProt Q86WV6, G230A/R293Q)
Sequence (Q86WV6 whole entry G230A/R293Q): as the sequence (Q86WV6 whole entry H232R) above, with G230A, R232H, R293Q counted along it
protocol summary: HTRF STING competition binding (cGAMP displacement) assay, hSTING-AQ
condition: HTRF displacement assay, means from at least three repeated experiments
Friendly reminder that pIC50 comes from taking -log10 of the concentration in mol/L.

Please review the entries below; each comes with its answer.
INSERT INTO results (chemical_string, experimental_target, observed_property, measured_result) VALUES
  ('COc1cc2c(=O)c3cc(F)cc4c3n(c2c(C)c1C)C(=O)C4', 'hSTING-AQ (Homo sapiens, UniProt Q86WV6, G230A/R293Q)', 'pIC50', 4.26),
  ('COc1cc2c(=O)c3cc(Cl)cc4c3n(c2c(C)c1C)C(=O)C4', 'hSTING-AQ (Homo sapiens, UniProt Q86WV6, G230A/R293Q)', 'pIC50', 4.19);

Consider the record given below.
// pIC50 lookup, key: COc1cc2c(=O)c3c(F)ccc4c3n(c2c(C)c1C)C(=O)C4
5.24

---

experimental target: mSTING (Mus musculus)
Sequence (Q3TBT3 whole entry): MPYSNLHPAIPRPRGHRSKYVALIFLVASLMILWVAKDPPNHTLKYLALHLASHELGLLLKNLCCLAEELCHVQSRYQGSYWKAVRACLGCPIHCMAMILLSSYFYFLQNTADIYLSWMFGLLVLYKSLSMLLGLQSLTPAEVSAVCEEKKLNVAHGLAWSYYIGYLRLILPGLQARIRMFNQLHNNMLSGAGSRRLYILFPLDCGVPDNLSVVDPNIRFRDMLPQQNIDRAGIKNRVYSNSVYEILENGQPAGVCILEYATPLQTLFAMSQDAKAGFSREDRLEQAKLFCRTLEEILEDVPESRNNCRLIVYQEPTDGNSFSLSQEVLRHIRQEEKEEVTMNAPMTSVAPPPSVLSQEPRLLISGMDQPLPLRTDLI
protocol summary: HTRF STING competition binding (cGAMP displacement) assay, mSTING
Parameters: purchased Cisbio
condition: concentrations up to 100 μM
observed property: binding to mSTING in displacement assay, in words

INSERT INTO measurements (molecule, measured_result) VALUES
  ('COc1cc(C(=O)O)c2[nH]c3c(C)c(C)c(OC)cc3c(=O)c2c1', 'inactive'),
  ('CCOC(=O)Cn1c2ccccc2c(=O)c2cc(OC)c(C)c(C)c21', 'cannot bind to STING'),
  ('COc1cc2c(=O)c3cccc(C(=O)O)c3[nH]c2c(C)c1C', 'inactive'),
  ('COc1cc2c(=O)c3ccccc3[nH]c2c(C)c1C [Compound 9, 2-methoxy-3,4-dimethylacridin-9(10H)-one]', 'cannot bind to STING');

---

experimental target: hSTING-R232 (Homo sapiens, UniProt Q86WV6, H232R)
Sequence (Q86WV6 whole entry H232R): as the sequence (Q86WV6 whole entry H232R) above
protocol summary: Cellular assay for STING inhibitory activity, 293T hSTING-R232 cells stimulated with 2′,3′-cGAMP (SEAP)
condition: compound at 100 μM
observed property: inhibitory potency in human STING reporter cells, initial screen

INSERT INTO results (compound, measured_result) VALUES
  ('COc1cc2c(=O)c3ccccc3n(CC(=O)O)c2c(C)c1C [Compound 11]', 'excellent inhibition'),
  ('COc1cc2c(=O)c3cccc(CC(=O)O)c3[nH]c2c(C)c1C [Compound 4]', 'not being as effective'),
  ('COc1cc2c(=O)c3cccc4c3n(c2c(C)c1C)C(=O)C4 [Compound 3]', 'not being as effective'),
  ('COc1cc2c(=O)c3c(F)ccc4c3n(c2c(C)c1C)C(=O)C4 [Compound 27]', 'excellent inhibition');

---

experimental target: hSTING-WT (Homo sapiens, UniProt Q86WV6, H232R)
protocol summary: HTRF STING competition binding (cGAMP displacement) assay, hSTING-WT
condition: HTRF displacement assay, means from at least three repeated experiments
observed property: IC50

Previously resolved entries follow.
INSERT INTO measurements (molecule, experimental_target, measured_result) VALUES
  ('COc1cc2c(=O)c3cc(F)cc(CC(=O)O)c3[nH]c2c(C)c1C', 'hSTING-WT (Homo sapiens, UniProt Q86WV6, H232R)', '> 100 µM'),
  ('COc1cc2c3c(c1)c(=O)c1cc(OC)c(C)c(C)c1n3C(=O)C2', 'hSTING-WT (Homo sapiens, UniProt Q86WV6, H232R)', '> 100 µM'),
  ('COc1cc2c(=O)c3ccccc3[nH]c2c(C)c1C [Compound 9, 2-methoxy-3,4-dimethylacridin-9(10H)-one]', 'hSTING-WT (Homo sapiens, UniProt Q86WV6, H232R)', '> 100 µM');

IC50 lookup needed for COc1cc2c(=O)c3cc(Cl)cc(CC(=O)O)c3[nH]c2c(C)c1C , thanks.
> 100 µM

Find the recorded IC50 belonging to COc1cc2c(=O)c3cccc(C(=O)O)c3[nH]c2c(C)c1C and report it.
> 100 µM

---

Quick list: IC50 per entry.
experimental target: hSTING-AQ (Homo sapiens, UniProt Q86WV6, G230A/R293Q)
protocol summary: HTRF STING competition binding (cGAMP displacement) assay, hSTING-AQ
condition: HTRF displacement assay, means from at least three repeated experiments

INSERT INTO measurements (compound, experimental_target, measured_result) VALUES
  ('COc1cc2c(=O)c3cc(Cl)cc(CC(=O)O)c3[nH]c2c(C)c1C', 'hSTING-AQ (Homo sapiens, UniProt Q86WV6, G230A/R293Q)', '> 100 µM'),
  ('COc1cc(C(=O)O)c2[nH]c3c(C)c(C)c(OC)cc3c(=O)c2c1', 'hSTING-AQ (Homo sapiens, UniProt Q86WV6, G230A/R293Q)', '> 100 µM'),
  ('CCOC(=O)Cn1c2ccccc2c(=O)c2cc(OC)c(C)c(C)c21', 'hSTING-AQ (Homo sapiens, UniProt Q86WV6, G230A/R293Q)', '> 100 µM'),
  ('COc1cc2c3c(c1)c(=O)c1cc(OC)c(C)c(C)c1n3C(=O)C2', 'hSTING-AQ (Homo sapiens, UniProt Q86WV6, G230A/R293Q)', '70.5 µM'),
  ('COc1cc2c(=O)c3ccccc3[nH]c2c(C)c1C [Compound 9, 2-methoxy-3,4-dimethylacridin-9(10H)-one]', 'hSTING-AQ (Homo sapiens, UniProt Q86WV6, G230A/R293Q)', '> 100 µM');

Given COc1cc2c(=O)c3cccc(CC(=O)O)c3[nH]c2c(C)c1C , state its recorded IC50.
47.6 µM

Give the measured IC50 of COc1cc2c(=O)c3cccc4c3n(c2c(C)c1C)C(=O)C4 .
58.2 µM

Sample COc1cc2c(=O)c3c(F)ccc(CC(=O)O)c3[nH]c2c(C)c1C — what was its IC50?
> 100 µM

For the compound COc1cc2c(=O)c3c(Cl)ccc4c3n(c2c(C)c1C)C(=O)C4 , what IC50 is on record?
48 µM

Need IC50, item COc1cc2c(=O)c3cc(F)cc(CC(=O)O)c3[nH]c2c(C)c1C
> 100 µM

Which IC50 is listed for COc1cc2c(=O)c3c(Cl)ccc(CC(=O)O)c3[nH]c2c(C)c1C ?
> 100 µM

What IC50 value was documented for this compound, COc1cc2c(=O)c3cccc(C(=O)O)c3[nH]c2c(C)c1C ?
> 100 µM
